Target: hFASN enzyme (full length) (Homo sapiens, UniProt P49327)
Construct: 10 μL hFASN enzyme (full length, 300 ng, purified in house); made in house
Assay: Fatty Acid Synthase (FASN) Inhibition Scintillation Proximity Assay
Format: biochemical
Conditions: read-out: FASN % Effect @1E−05M
Recorded Metric: inhibition at 10 µM (%)

1) Cc1ccc(C(=O)N2CCC(c3ccc(-c4cnn(C)c4)cc3)CC2)cc1NC(=O)c1sccc1Cl = 92
2) Cc1ccc(C(=O)N2CC(c3ccc(-c4cnn(C)c4)cc3)C2)cc1NC(=O)c1cccc(C(F)(F)F)n1 = 89
3) CC(C)Nc1ccc(C(=O)Nc2cc(C(=O)N3CC(c4ccc(-c5cccnc5)cc4)C3)ccc2Cl)cn1 = 93
4) COc1ccc(C(=O)Nc2cc(C(=O)N3CCC(c4ccc(-c5cnn(C)c5)cc4)CC3)ccc2C)cc1Cl = 98
5) Cc1ccc(C(=O)N2CC(c3ccc(-c4cnn(C)c4)cc3)C2)cc1NC(=O)c1cnc(NC(C)C)nc1 = 102

a: Cc1ccc(C(=O)N2CCC(c3ccc(-c4cnn(C)c4)cc3)CC2)cc1NC(=O)C1CCNCC1
b: Cc1ccc(C(=O)N2CCC(c3ccc(-c4ccc(F)cc4)cc3)CC2)cc1NC(=O)c1ccc(NC(C)C)nc1
Between a and b , which one shows the larger inhibition at 10 µM value? Identify your selection by its label.
a

====

Target: hFASN enzyme (full length) (Homo sapiens)
Construct: 10 μL hFASN enzyme (full length, 300 ng, purified in house); made in house
Experiment: Fatty Acid Synthase (FASN) Inhibition Scintillation Proximity Assay
Type: biochemical
Settings: read-out: FASN % Effect @1E−05M
Description: In this assay, inhibition of FASN activity is measured using ^3H-acetyl-CoA and malonyl-CoA as substrates. ^3H-Acetyl CoA is converted to ^3H-palmitate through a series of reactions by the FASN protein, which contains 7 functional domains and carries out 7 enzymatic reactions to ultimately produce ^3H-palmitate. […] Raw data generated by the instrument were normalized to % Controlmin values, which were calculated as: % Controlmin=100*(x−mLC)/(mHC−mLC) […]
Recorded Metric: inhibition at 10 µM (%)

1. Cc1ccc(C(=O)N2CCC(c3ccc(-c4cnn(C)c4)cc3)CC2)cc1NC(=O)c1nc(Br)cs1 = 106
2. Cn1cc(-c2ccc(C3CCN(C(=O)c4ccc(OCc5ccccc5)c(NC(=O)c5ccc(Cl)nc5)c4)CC3)cc2)cn1 = 89
3. Cc1ccc(C(=O)N2CCC(c3ccc(-c4cnn(C)c4)cc3)CC2)cc1NC(=O)C1CCN(CCC(C)C)C1 (stereo not shown) = 101
4. CCN1CC(C(=O)Nc2cc(C(=O)N3CCC(c4ccc(-c5cnn(C)c5)cc4)CC3)ccc2C)C1 = 95
5. CCc1ccc(C(=O)N2CCC(c3ccc(-c4cnn(C)c4)cc3)CC2)cc1NC(=O)c1ccc(Cl)nc1 = 113
6. CC(C)Nc1ccc(C(=O)Nc2cc(C(=O)N3CCC(c4ccc(-c5ccnc6ccccc56)cc4)CC3)ccc2Cl)cn1 = 118
7. CC(C)Nc1ccc(C(=O)Nc2cc(C(=O)N3CCC(c4ccc(-c5ccnn5C)cc4)CC3)ccc2Cl)cn1 = 109

====

Molecular target: FASN Keto-reductase Domain (Homo sapiens, UniProt P49327)
Construct: 10 μL hFASN enzyme (full length, 300 ng, purified in house) and 360 μM NADPH; made in house
Sequence (P49327 whole entry, the tested form may be a part): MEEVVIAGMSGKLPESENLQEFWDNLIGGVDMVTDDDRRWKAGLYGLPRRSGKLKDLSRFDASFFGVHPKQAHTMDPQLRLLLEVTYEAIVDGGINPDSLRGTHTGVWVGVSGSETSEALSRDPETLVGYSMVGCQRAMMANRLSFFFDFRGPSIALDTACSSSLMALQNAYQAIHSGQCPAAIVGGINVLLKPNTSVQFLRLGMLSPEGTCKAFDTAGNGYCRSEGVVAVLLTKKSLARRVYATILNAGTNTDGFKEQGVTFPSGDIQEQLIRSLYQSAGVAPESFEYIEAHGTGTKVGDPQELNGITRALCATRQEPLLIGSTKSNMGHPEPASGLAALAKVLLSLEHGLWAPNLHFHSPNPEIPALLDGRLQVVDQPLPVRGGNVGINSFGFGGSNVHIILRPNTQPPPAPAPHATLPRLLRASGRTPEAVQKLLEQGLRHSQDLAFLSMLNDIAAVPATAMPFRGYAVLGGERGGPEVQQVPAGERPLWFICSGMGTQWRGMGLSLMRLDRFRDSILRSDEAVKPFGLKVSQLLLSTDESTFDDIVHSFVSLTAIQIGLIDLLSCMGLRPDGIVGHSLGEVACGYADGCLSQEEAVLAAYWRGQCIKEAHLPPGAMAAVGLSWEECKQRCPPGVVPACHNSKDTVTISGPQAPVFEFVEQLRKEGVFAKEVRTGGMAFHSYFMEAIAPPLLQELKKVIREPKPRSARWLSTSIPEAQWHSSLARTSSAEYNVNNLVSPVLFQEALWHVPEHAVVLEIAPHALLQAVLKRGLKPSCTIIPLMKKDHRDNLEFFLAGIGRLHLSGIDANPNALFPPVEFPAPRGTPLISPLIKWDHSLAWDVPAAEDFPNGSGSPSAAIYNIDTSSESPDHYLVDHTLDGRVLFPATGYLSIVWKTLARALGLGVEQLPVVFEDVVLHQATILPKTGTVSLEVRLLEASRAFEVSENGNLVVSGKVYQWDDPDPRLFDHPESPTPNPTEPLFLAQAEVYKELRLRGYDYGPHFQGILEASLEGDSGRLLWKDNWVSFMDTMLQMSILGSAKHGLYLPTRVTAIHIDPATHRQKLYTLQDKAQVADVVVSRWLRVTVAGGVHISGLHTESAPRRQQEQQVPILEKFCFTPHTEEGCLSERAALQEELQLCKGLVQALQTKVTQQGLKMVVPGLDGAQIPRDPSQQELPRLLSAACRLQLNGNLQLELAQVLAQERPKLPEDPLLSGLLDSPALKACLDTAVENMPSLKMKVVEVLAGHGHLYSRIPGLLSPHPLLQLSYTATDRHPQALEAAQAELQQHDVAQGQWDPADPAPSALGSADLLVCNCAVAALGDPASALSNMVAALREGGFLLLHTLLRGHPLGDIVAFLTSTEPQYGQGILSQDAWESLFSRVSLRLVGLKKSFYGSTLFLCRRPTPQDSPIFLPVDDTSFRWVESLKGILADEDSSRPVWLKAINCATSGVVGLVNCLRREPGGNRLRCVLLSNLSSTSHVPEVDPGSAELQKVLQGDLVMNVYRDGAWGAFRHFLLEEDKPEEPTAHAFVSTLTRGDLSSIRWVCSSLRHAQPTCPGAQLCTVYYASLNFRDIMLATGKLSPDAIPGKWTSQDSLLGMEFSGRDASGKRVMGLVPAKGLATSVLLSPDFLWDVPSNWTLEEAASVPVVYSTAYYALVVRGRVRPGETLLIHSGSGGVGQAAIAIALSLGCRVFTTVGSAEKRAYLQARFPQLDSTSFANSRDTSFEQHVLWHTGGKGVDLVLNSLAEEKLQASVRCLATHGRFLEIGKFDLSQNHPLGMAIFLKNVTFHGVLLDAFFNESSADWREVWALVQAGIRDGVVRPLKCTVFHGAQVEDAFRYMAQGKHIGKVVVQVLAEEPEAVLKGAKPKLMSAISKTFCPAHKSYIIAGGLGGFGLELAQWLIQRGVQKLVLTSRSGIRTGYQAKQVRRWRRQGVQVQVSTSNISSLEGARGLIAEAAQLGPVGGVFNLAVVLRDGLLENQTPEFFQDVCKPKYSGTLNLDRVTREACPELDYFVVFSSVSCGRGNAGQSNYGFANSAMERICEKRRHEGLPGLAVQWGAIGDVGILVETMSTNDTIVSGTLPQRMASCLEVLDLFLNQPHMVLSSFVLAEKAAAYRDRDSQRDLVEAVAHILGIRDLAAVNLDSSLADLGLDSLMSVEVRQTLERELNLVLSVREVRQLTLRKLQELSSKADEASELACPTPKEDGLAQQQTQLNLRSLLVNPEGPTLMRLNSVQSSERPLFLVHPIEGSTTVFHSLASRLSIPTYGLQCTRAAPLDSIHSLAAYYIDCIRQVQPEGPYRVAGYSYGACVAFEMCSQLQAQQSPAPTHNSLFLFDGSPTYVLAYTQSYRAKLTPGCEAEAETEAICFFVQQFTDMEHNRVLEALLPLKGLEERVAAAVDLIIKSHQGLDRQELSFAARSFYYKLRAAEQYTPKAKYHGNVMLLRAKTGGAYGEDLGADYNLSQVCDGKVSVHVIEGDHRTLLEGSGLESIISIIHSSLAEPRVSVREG
Test: Fatty Acid Synthase Keto-Reductase Domain (FASN KR) Inhibition
Type: biochemical
Conditions: mean where tested more than once; read-out: FASN K-R Domain pIC50 (converted)
Recorded Metric: IC50 (nM)

1) Cc1ccc(C(=O)N2CCC(c3ccc(-c4cnn(C)c4)cn3)CC2)cc1NC(=O)c1ccc(NC(C)C)nc1 = 219

P: Cc1ccc(C(=O)N2CCC(c3ccc(-c4cnn(C)c4)nc3)CC2)cc1NC(=O)c1ccc(NC(C)C)nc1
Q: CC(C)Nc1ccc(C(=O)Nc2cc(C(=O)N3CCC(c4ccc(-c5cnn(C)c5)cc4)CC3)ccc2N(C)C)cn1
R: Cc1ccc(C(=O)N2CCC(c3ccc(-c4cnn(C)c4)cc3)CC2)cc1NC(=O)c1ccc(C#N)cc1F
Arrange items by their IC50 values in increasing order. Output the labels ranked as instructed.
R, Q, P

a: Cc1ccc(C(=O)N2CCC(c3ccc(-c4ccccc4C)cc3)CC2)cc1NC(=O)c1ccc(NC(C)C)nc1
b: Cc1ccc(C(=O)N2CCC(c3ccc(-c4cnn(C)c4)cc3)CC2)cc1NC(=O)C1CN(CC(C)(C)C)C1
Hey, between a and b which has a smaller measured IC50? Identify your selection by its label.
b

P: Cc1ccc(C(=O)N2CCC(c3ccc(-c4cnn(C)c4)cc3)CC2)cc1NC(=O)c1ccc(C#N)cc1
Q: COc1ccccc1-c1ccc(C2CCN(C(=O)c3ccc(C)c(NC(=O)c4ccc(NC(C)C)nc4)c3)CC2)cc1
R: Cc1ccc(C(=O)N2CCC(c3ccc(-c4cnn(C)c4)cc3)CC2)cc1NC(=O)c1ccc(Cl)cc1Cl
Arrange these molecules by their IC50, starting with the largest number. Output the labels ranked as instructed.
Q, P, R

A: Cc1ccc(C(=O)N2CCC(c3ccc(-c4cnn(C)c4)cc3)CC2)cc1NC(=O)c1ccc(Cl)cc1
B: Cc1ccc(C(=O)N2CCC(c3ccc(-c4ccsc4)cc3)CC2)cc1NC(=O)c1ccc(NC(C)C)nc1
Between A and B , which one shows the larger IC50 value? Identify your selection by its label.
B

====

System: A2780 ovarian cells
Experiment: A2780 Ovarian Cell Proliferation Assay in Lipid Reduced Medium, without Palmitate
Format: cell-based
Conditions: Homo sapiens, A2780; lipid reduced medium, without palmitate, 96 h, MTT; read-out: Proliferation A2780 w/o Palmitate pIC50 (converted)
Description: The biological assays described below correspond to comparative assays for ovarian cell proliferation. […] Compounds active in the absence of palmitate would not be expected to be active in the control. 2500 cells were seeded in a 96-well clear well plate in 200 μL RPMI1640 with 10% Fetal Calf Serum (Hyclone), and incubated at 37° C., 5% CO2. Blanks were wells without cells. […] The absorbance was measured at 544 nm on a SPECTRAMAX. […]
Recorded Metric: IC50 (nM)

A: Cc1ccc(C(=O)N2CCC(c3ccc(-c4ccsc4)cc3)CC2)cc1NC(=O)c1ccc(NC(C)C)nc1 [Compound 223]
B: Cc1cccc(-c2ccc(C3CCN(C(=O)c4ccc(C)c(NC(=O)c5ccc(NC(C)C)nc5)c4)CC3)cc2)c1 [Compound 233]
Between A and B , which one shows the larger IC50 value? Identify your selection by its label.
B

====

// hFASN enzyme (full length) (Homo sapiens) pIC50 records
pIC50: −log10 of the molar value.
Recorded Metric: pIC50

// known answers, use as guide
1) CC(C)Nc1ccc(C(=O)Nc2cc(C(=O)N3CCC(c4ccc(-c5cnn(C)c5)cc4)CC3)ccc2NC(C)C)cn1 [Compound 284] = 6.90
2) Cc1ccc(C(=O)N2CCC(c3ccc(-c4ccccc4)cc3)CC2)cc1NC(=O)c1ccc(NC(C)C)nc1 [Compound 225] = 6.47
3) Cc1ccc(C(=O)N2CCC(c3ccc(-c4cnn(C)c4)cc3)CC2)cc1NC(=O)c1ccc(F)cc1 [Compound 116] = 7.36
4) COc1ccc(C(=O)N2CC(c3ccc(-c4cnn(C)c4)cc3)C2)cc1NC(=O)c1ccc(NC(C)C)nc1 [Compound 202] = 7.28
5) Cc1ccc(C(=O)N2CCC(c3ccc(-c4cnn(C)c4)cc3)CC2)cc1NC(=O)C1CCN(C)CC1 [Compound 169] = 7.15
6) CN(C(=O)C1CC1)c1ccc(C(=O)N2CCC(c3ccc(-c4cnn(C)c4)cc3)CC2)cc1NC(=O)C1CC1 [Compound 277] = 5.35
7) COc1ccc(C(=O)N2CC(c3ccc(-c4cnn(C)c4)cc3)C2)cc1NC(=O)c1ccc(N2CCOCC2)nc1 [Compound 184] = 7.44
8) Cc1ccc(C(=O)N2CCC(c3ccc(-c4cn[nH]c4)cc3)CC2)cc1NC(=O)c1ccc(NC(C)C)nc1 [Compound 42] = 7.67
9) COc1ccc(C(=O)N2CCC(c3ccc(-c4cnn(C)c4)cc3)CC2)cc1NC(=O)c1ccc(Cl)nc1 [Compound 231] = 7.47
10) Cc1ccc(C(=O)N2CCC(c3ccc(-c4cnn(C)c4)cc3)CC2)cc1NC(=O)C1CN(C2CCC2)C1 [Compound 240] = 7.08

P: Cc1ccc(C(=O)N2CCC(c3ccc(-c4cnn(C)c4)cc3)CC2)cc1NC(=O)c1ccc2c(c1)OCO2 [Compound 133]
Q: Cc1ccc(C(=O)N2CCC(c3ccc(-c4cnn(C)c4)cc3)CC2)cc1NC(=O)c1sccc1Cl [Compound 99]
Between P and Q , which one shows the larger pIC50 value? Identify your selection by its label.
P
(P: 7.43, Q: 6.97)

====

Biological target: FASN Keto-reductase Domain (Homo sapiens)
Construct: 10 μL hFASN enzyme (full length, 300 ng, purified in house) and 360 μM NADPH; made in house
Assay: Fatty Acid Synthase Keto-Reductase Domain (FASN KR) Inhibition
Type: biochemical
Settings: mean where tested more than once; read-out: FASN K-R Domain pIC50 (converted)
Recorded Metric: IC50 (nM)

1. COc1ccc(C(=O)Nc2cc(C(=O)N3CCC(c4ccc(-c5cnn(C)c5)cc4)CC3)ccc2C)cc1Cl = 93.3

I: Cc1ccc(C(=O)N2CC(c3ccc(-c4ccc5cnn(C)c5c4)cc3)C2)cc1NC(=O)c1ccc(NC(C)C)nc1
II: Cc1ccc(C(=O)N2CCC(c3ccc(-c4cnn(C)c4)cc3)CC2)cc1NC(=O)c1ccc2c(c1)OCO2
III: Cc1ccc(C(=O)N2CCC(c3ncc(-c4cnn(C)c4)cn3)CC2)cc1NC(=O)c1ccc(NC(C)C)nc1
Arrange these compounds by their IC50, starting with the largest number. Output the labels ranked as instructed.
III, II, I
